- measurement.protocol: Stability in presence of rat brain trypsin assessed as half life of compound hydrolysis by HPLC
- Type: physicochemical
Measured half-life of individual entries
Field format: number, assumed h, no unit text.

smiles: C[C@H](NC(=O)CNC(=O)[C@@H](NC(=O)[C@H](Cc1ccccc1)NC(=O)CNC(=O)CNC(=O)[C@@H](N)Cc1ccccc1)[C@@H](C)O)C(=O)N[C@@H](CCCN=C(N)N)C(=O)N[C@@H](CCCCN)C(=O)N[C@@H](CO)C(=O)N[C@@H](C)C(=O)N[C@@H](CCCN=C(N)N)C(=O)N[C@@H](CCCCN)C(=O)N[C@@H](CCCN=C(N)N)C(=O)N[C@@H](CCCCN)C(=O)N[C@@H](CC(N)=O)C(=O)N[C@@H](CCC(N)=O)C(=O)O
half-life [h]: 10

QUERY: Can you share its half-life? I mean this compound: `CC(C)C[C@H](NC(=O)[C@H](CCCCN)NC(=O)[C@H](CCCN=C(N)N)NC(=O)[C@H](C)NC(=O)[C@H](CO)NC(=O)[C@H](CCCCN)NC(=O)[C@H](CCCN=C(N)N)NC(=O)[C@H](C)NC(=O)CNC(=O)[C@@H](NC(=O)[C@H](Cc1ccccc1)NC(=O)CNC(=O)CNC(=O)[C@@H](N)Cc1ccccc1)[C@@H](C)O)C(=O)N[C@@H](C)C(=O)N[C@@H](CC(N)=O)C(=O)N[C@@H](CCC(N)=O)C(=O)O`
RESULT: 8

----------
- measurement.protocol: Stability in presence of trypsin assessed as half life of compound hydrolysis
- Type: ADME
measured.endpoint: half-life (min)
Field format: number, assumed min, no unit text.

QUERY: Can you share its half-life? I mean this substance: `H-FGGFTGARKSARKRANQ-OH`
RESULT: 23

----------
- tested.target: Nociceptin receptor (Rattus norvegicus, UniProt P35370)
- Sequence (P35370 whole entry): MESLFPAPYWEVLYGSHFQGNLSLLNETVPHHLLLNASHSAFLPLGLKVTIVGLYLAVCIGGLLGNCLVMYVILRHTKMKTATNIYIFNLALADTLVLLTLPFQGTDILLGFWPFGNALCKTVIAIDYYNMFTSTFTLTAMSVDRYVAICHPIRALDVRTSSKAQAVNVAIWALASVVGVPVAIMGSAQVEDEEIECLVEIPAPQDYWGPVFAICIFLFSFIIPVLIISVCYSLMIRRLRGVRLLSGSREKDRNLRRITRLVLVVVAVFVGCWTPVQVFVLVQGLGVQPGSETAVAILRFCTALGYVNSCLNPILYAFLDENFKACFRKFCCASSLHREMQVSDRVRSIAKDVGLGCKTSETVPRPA
- measurement.protocol: Activation of rat ORL1 receptor expressed in african green monkey COS7 cells by [35S]GTPgammaS binding assay
- Assay type: functional, cell-based, COS-7
measured.endpoint: EC50 (nM)
Field format: number, assumed nM, no unit text.

These solved cases illustrate the format of a correct answer.
substance: H-FGGFTGARKRKRKLANQ-OH
EC50 [nM]: 86

substance: H-FGGFTGARKSARKLWNQ-OH
EC50 [nM]: 50

substance: H-FGGFTGARKSARKKKNQ-OH
EC50 [nM]: 1.1

QUERY: Can you share its EC50? I mean this substance: `H-FGGFTGARKSARKAANQ-OH`
RESULT: 11

QUERY: Can you share its EC50? I mean this substance: `H-FGGFTGARKSARKLARK-OH`
RESULT: 2.7

QUERY: Can you share its EC50? I mean this substance: `H-FGGFTGARKSARKKANQ-OH`
RESULT: 4.1

----------
- tested.target: Nociceptin receptor (Rattus norvegicus, UniProt P35370)
- measurement.protocol: Displacement of [3H]nociceptin from rat ORL1 receptor expressed in african green monkey COS7 cells
- Assay type: cell-based, COS-7
measured.endpoint: pIC50
pIC50 here: minus log base 10 of the concentration, concentration in moles per litre.

substance: H-FGGFTGARKSARKRKRK-OH
result.number: 9.38
//
substance: H-FGGFTGARKRKRKLANQ-OH
result.number: 9.03
//
substance: H-FGGFTGARKSARKFANQ-OH
result.number: 8.96
//
substance: H-FGGFTGARKSARKLVNQ-OH
result.number: 8.66
//
substance: H-FGGFTGARKSARKRRNQ-OH
result.number: 9.57

QUERY: Form field - read-out: pIC50; system: Nociceptin receptor (Rattus norvegicus, UniProt P35370); submitted item: `H-FGGFTRKRKSARKLANQ-OH`
RESULT: 7.89

QUERY: Form field - read-out: pIC50; system: Nociceptin receptor (Rattus norvegicus, UniProt P35370); submitted item: `H-FGGFTGARKSARKLARK-OH`
RESULT: 9.27

QUERY: Form field - read-out: pIC50; system: Nociceptin receptor (Rattus norvegicus, UniProt P35370); submitted item: `H-FGGFTGARKSARKVANQ-OH`
RESULT: 8.96

QUERY: Form field - read-out: pIC50; system: Nociceptin receptor (Rattus norvegicus, UniProt P35370); submitted item: `H-FGGFTGARKSARKWANQ-OH`
RESULT: 9.39

QUERY: Form field - read-out: pIC50; system: Nociceptin receptor (Rattus norvegicus, UniProt P35370); submitted item: `H-FGGFTGARKSARKLWNQ-OH`
RESULT: 8.68

QUERY: Form field - read-out: pIC50; system: Nociceptin receptor (Rattus norvegicus, UniProt P35370); submitted item: `H-FGGFTGARKSARKLRNQ-OH`
RESULT: 9.51

QUERY: Form field - read-out: pIC50; system: Nociceptin receptor (Rattus norvegicus, UniProt P35370); submitted item: `H-FGGFTGARKSARKKANQ-OH`
RESULT: 9.39

QUERY: Form field - read-out: pIC50; system: Nociceptin receptor (Rattus norvegicus, UniProt P35370); submitted item: `H-FGGFTGARKSARKLLNQ-OH`
RESULT: 9.32

QUERY: Form field - read-out: pIC50; system: Nociceptin receptor (Rattus norvegicus, UniProt P35370); submitted item: `H-FGGFTGARKSARKLYNQ-OH`
RESULT: 9.00

QUERY: Form field - read-out: pIC50; system: Nociceptin receptor (Rattus norvegicus, UniProt P35370); submitted item: `H-FGGFTGARKSARKRANQ-OH`
RESULT: 9.48

QUERY: Form field - read-out: pIC50; system: Nociceptin receptor (Rattus norvegicus, UniProt P35370); submitted item: `H-FGGFTGARKSARKLFNQ-OH`
RESULT: 9.00

QUERY: Form field - read-out: pIC50; system: Nociceptin receptor (Rattus norvegicus, UniProt P35370); submitted item: `H-FGGFTGARKSARKKKNQ-OH`
RESULT: 9.80

QUERY: Form field - read-out: pIC50; system: Nociceptin receptor (Rattus norvegicus, UniProt P35370); submitted item: `H-FGGFTGARKSARKKRNQ-OH`
RESULT: 9.68

QUERY: Form field - read-out: pIC50; system: Nociceptin receptor (Rattus norvegicus, UniProt P35370); submitted item: `H-FGGFTGARKSARKAANQ-OH`
RESULT: 8.82

----------
Measured pEC50 of individual entries
- tested.target: Nociceptin receptor (Rattus norvegicus, UniProt P35370)
- measurement.protocol: Activation of rat ORL1 receptor expressed in african green monkey COS7 cells by [35S]GTPgammaS binding assay
- Assay type: functional, cell-based, COS-7
pEC50 here: minus log base 10 of the concentration, concentration in moles per litre.

These solved cases illustrate the format of a correct answer.
substance: H-FGGFTGARKSARKKRNQ-OH
result.number: 8.89
//
substance: H-FGGFTGARKSARKLVNQ-OH
result.number: 7.52

QUERY: Can you share its pEC50? I mean this substance: `H-FGGFTGARKSARKLFNQ-OH`
RESULT: 7.92

QUERY: Can you share its pEC50? I mean this substance: `H-FGGFTGARKSARKRRNQ-OH`
RESULT: 9.01

QUERY: Can you share its pEC50? I mean this substance: `H-FGGFTGARKSARKWANQ-OH`
RESULT: 8.24

QUERY: Can you share its pEC50? I mean this substance: `H-FGGFTGARKSARKRKRK-OH`
RESULT: 8.64

QUERY: Can you share its pEC50? I mean this substance: `H-FGGFTGARKSARKLRNQ-OH`
RESULT: 8.49

QUERY: Can you share its pEC50? I mean this substance: `H-FGGFTRKRKSARKLANQ-OH`
RESULT: 6.06

QUERY: Can you share its pEC50? I mean this substance: `H-FGGFTGARKSARKVANQ-OH`
RESULT: 7.82

QUERY: Can you share its pEC50? I mean this substance: `H-FGGFTGARKSARKRANQ-OH`
RESULT: 8.40

----------
- tested.target: Nociceptin receptor (Rattus norvegicus, UniProt P35370)
- measurement.protocol: Activation of rat ORL1 receptor expressed in african green monkey COS7 cells by [35S]GTPgammaS binding assay
- Format: functional, cell-based, COS-7
measured.endpoint: EC50 (nM)
Field format: number, assumed nM, no unit text.

substance: H-FGGFTGARKSARKLYNQ-OH
measured.endpoint: EC50
result.number: 33
--
substance: H-FGGFTGARKSARKLLNQ-OH
measured.endpoint: EC50
result.number: 10

QUERY: Can you share its EC50? I mean this substance: `H-FGGFTGARKSARKFANQ-OH`
RESULT: 9
